The reported numbers originate from PubChem BioAssay (NCI).

# System: SN12C renal
# experiment notes: NCI-60 one-dose screen, 48 h (100 = growth as untreated, 0 = no growth, -100 = all killed)
# protocol conditions: 10 µM unless noted
Compounds without any hit were thinned out: in the full panel of roughly 83,000, 20% have a hit.
Please note: growth exactly at 90% is false. Only values below 90% get true.

COc1ccccc1NC(=O)c1sc2nc3c(cc2c1N)C(=O)CCC3
true
C1=C(Cc2ccccc2)n2cnc3ncnc(c32)S1
true
COc1cc(C2=NN(C=O)C(c3cccc(Nc4ccnc5cc(Cl)ccc45)c3)C2)cc(OC)c1OC (stereo not given)
true
COc1ccc(NC(=O)c2ccc(-c3ccccc3)cc2)c(C(N)=O)c1
false
COc1cc(/C=N/NC(=O)c2ccc(C(F)(F)F)nc2Nc2ccc(Cl)cc2C)ccc1O
true
